# target.system: T1, human IL-25 (human, UniProt Q9H293 33-177)
# T1 construct: ELISA used bought R&D systems #1258-IL-025/CF; Treated as one molecule; also called IL-17E; human IL-17E
# T1 sequence (looked up): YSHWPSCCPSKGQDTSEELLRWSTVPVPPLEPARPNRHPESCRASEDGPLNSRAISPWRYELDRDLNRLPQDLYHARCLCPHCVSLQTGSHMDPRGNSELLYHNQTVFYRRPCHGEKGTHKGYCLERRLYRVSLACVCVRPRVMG
# experimental.details: SPR, Biacore T200; antibody captured by anti-human Fc, IL-25 as analyte
quantity.measured: kon (M⁻¹ s⁻¹)
# output: bare number, implied unit M⁻¹ s⁻¹

# binder, kon [M⁻¹ s⁻¹]
measured = [
    ("VH2-1 + VL1-2 (humanized anti-IL-25 antibody formed by VH2-1 and VL1-2) (antibody, V domains shown) VH: QVTLRESGPALLKPTQTLTLTCTFSGFSLSTSGMGLGWIRQPPGKALEWLAHIWWDDVKHYKPALKSRLTISKDTSKNQVVLTITNVDPVDTATYYCARMGQLHYYGYDYAMDYWGQGTLVTVSS VL: EIVLTQSPATLSASPGERVTISCSASSSVSYMYWYQQKPGQAPRPLIYRTSNLASGVPARFSGSGSGTDYTLTISSMEPEDFATYYCQLYHSYPPTWTFGQGTKLEIK", "1.19e+06"),
]

Any idea what kon was measured for VH2-1 + VL2-1 (humanized anti-IL-25 antibody formed by VH2-1 and VL2-1) (antibody, V domains shown) VH: QVTLRESGPALLKPTQTLTLTCTFSGFSLSTSGMGLGWIRQPPGKALEWLAHIWWDDVKHYKPALKSRLTISKDTSKNQVVLTITNVDPVDTATYYCARMGQLHYYGYDYAMDYWGQGTLVTVSS VL: DIQLTQSPSFLSASVGDRVTITCSASSSVSYMYWYQQKPGKAPKPLIYRTSNLASGVPSRFSGSGSGTEYTLTISSMQPEDFATYYCQLYHSYPPTWTFGQGTKLEIK ?
1.17e+06
